pIC50: −log10 of the molar value.
As an illustration, consider measured pIC50 for compounds on mTOR kinase (Homo sapiens).

I'm curious: which pIC50 was measured for CN(C)C(=O)c1ccc(NC(=O)Nc2ccc(-c3nc(N4CCOCC4)c4ncc(-c5ccnnc5)cc4n3)cc2)cc1 [Example 96] tested on mTOR kinase (Homo sapiens)?
> 7.30

I'm curious: which pIC50 was measured for CN(C)C(=O)c1ccc(NC(=O)Nc2ccc(-c3nc(N4CCOCC4)c4ccc(-c5ccnnc5)cc4n3)cc2F)cc1 [Example 98] tested on mTOR kinase (Homo sapiens)?
> 7.30

I'm curious: which pIC50 was measured for CN(C)C(=O)c1ccc(NC(=O)Nc2ccc(-c3nc(N4CCOCC4)c4ccc(-c5cccs5)cc4n3)cc2)cc1 [Example 74] tested on mTOR kinase (Homo sapiens)?
6.70 to 7.30

I'm curious: which pIC50 was measured for CN(C)C(=O)c1ccc(NC(=O)Nc2ccc(-c3nc(N4CCOCC4)c4ccc(-c5ccco5)cc4n3)cc2)c(F)c1 [Example 160] tested on mTOR kinase (Homo sapiens)?
6.70 to 7.30

I'm curious: which pIC50 was measured for CN(C)C(=O)c1ccc(NC(=O)Nc2ccc(-c3nc(N4CCOCC4)c4ccc(-c5cccnc5F)cc4n3)cc2F)cc1 [Example 91] tested on mTOR kinase (Homo sapiens)?
> 7.30

Further cases:
I'm curious: which pIC50 was measured for CN(C)C(=O)c1ccc(NC(=O)Nc2ccc(-c3nc(N4CCOCC4)c4ccc(-c5cccc(S(C)(=O)=O)c5)cc4n3)cc2F)cn1 [Example 130] tested on mTOR kinase (Homo sapiens)?
> 7.30

I'm curious: which pIC50 was measured for Cc1noc(C)c1-c1cc2nc(-c3ccc(NC(=O)Nc4ccc(C(=O)N(C)C)cc4)cc3)nc(N3CCOCC3)c2cc1F [Example 143] tested on mTOR kinase (Homo sapiens)?
> 7.30

I'm curious: which pIC50 was measured for CN(C)C(=O)c1ccc(NC(=O)Nc2ccc(-c3nc(N4CCOCC4)c4ncc(-c5cccnc5F)cc4n3)cn2)cc1 [Example 111] tested on mTOR kinase (Homo sapiens)?
> 7.30

I'm curious: which pIC50 was measured for CN(C)C(=O)c1ccc(NC(=O)Nc2ccc(-c3nc(N4CCOCC4)c4ccc(-c5cccc(S(C)(=O)=O)c5)cc4n3)c(F)c2)cc1 [Example 245] tested on mTOR kinase (Homo sapiens)?
6.70 to 7.30

I'm curious: which pIC50 was measured for Cc1ccc(-c2ccc3c(N4CCOC(C)C4)nc(-c4ccc(NC(=O)Nc5ccc(C(=O)N(C)C)cc5)cc4)nc3c2)o1 (centres unmarked) [Example 142] tested on mTOR kinase (Homo sapiens)?
6.70 to 7.30

I'm curious: which pIC50 was measured for CN(C)C(=O)c1ccc(NC(=O)Nc2ccc(-c3nc(N4CCOCC4)c4ccc(-c5cnc(O)nc5)cc4n3)cc2)cc1 [Example 150] tested on mTOR kinase (Homo sapiens)?
> 7.30

I'm curious: which pIC50 was measured for CN(C)C(=O)c1ccc(NC(=O)Nc2ccc(-c3nc(N4CCOCC4)c4ccc(-c5cncnc5)cc4n3)cc2)cc1 [Example 1] tested on mTOR kinase (Homo sapiens)?
> 7.30

I'm curious: which pIC50 was measured for CN1CCN(C(=O)c2ccc(NC(=O)Nc3ccc(-c4nc(N5CCOCC5)c5ccc(-c6ccncc6)cc5n4)cc3F)cc2)CC1 [Example 212] tested on mTOR kinase (Homo sapiens)?
6.70 to 7.30

I'm curious: which pIC50 was measured for COc1ccc2c(N3CCOCC3)nc(-c3ccc(NC(=O)Nc4ccc(C(=O)N(C)C)cc4)cc3)nc2c1 [Example 180] tested on mTOR kinase (Homo sapiens)?
> 7.30

====

pIC50: −log10 of the molar value.
As an illustration, consider measured pIC50 for molecules on UniProt P42345.

// known answers, use as guide
I'm curious: which pIC50 was measured for `CN1CCN(C(=O)c2ccc(NC(=O)Nc3ccc(-c4nc(N5CCOCC5)c5ccc(-c6cnn(C)c6)cc5n4)cc3)cc2)CC1` tested on UniProt P42345?
> 7.30

I'm curious: which pIC50 was measured for `CN(C)[C@@H]1CCN(C(=O)c2ccc(NC(=O)Nc3ccc(-c4nc(N5CCOCC5)c5ncc(-c6cnn(C)c6)cc5n4)cc3F)cc2)C1` tested on UniProt P42345?
> 7.30

Then there is this molecule:
I'm curious: which pIC50 was measured for `CN(C)C(=O)c1ccc(NC(=O)Nc2ccc(-c3nc(N4CCOCC4)c4cc(F)c(-c5cncnc5)cc4n3)cn2)cc1` tested on UniProt P42345?
6.70 to 7.30

====

Tested on: PC3 cells
protocol-details: XTT assay for cell viability, PC3 cells
Type: cell-based, human
assay-context: Homo sapiens, PC-3, cell viability
pIC50: −log10 of the molar value.
recorded-metric: pIC50

// known answers, use as guide
I'm curious: which pIC50 was measured for `CN(C)C(=O)c1ccc(NC(=O)Nc2ccc(-c3nc(N4CCOCC4)c4ccc(-c5ccco5)cc4n3)cc2)c(F)c1` tested on PC3 cells?
> 7.00

I'm curious: which pIC50 was measured for `CN(C)C(=O)c1ccc(NC(=O)Nc2ccc(-c3nc(N4CCOCC4)c4ncc(-c5cnn(C)c5)cc4n3)cn2)cc1` tested on PC3 cells?
5.00 to 6.70

I'm curious: which pIC50 was measured for `CNC(=O)c1ccc(NC(=O)Nc2ccc(-c3nc(N4CCOCC4)c4ccc(-c5cccc(S(C)(=O)=O)c5)cc4n3)cc2)cc1` tested on PC3 cells?
6.30 to 7.00

Then there is this compound:
I'm curious: which pIC50 was measured for `CN(C)C(=O)c1ccc(NC(=O)Nc2ccc(-c3nc(N4CCOCC4)c4ncc(-c5cnc(N)nc5)cc4n3)cc2)cc1` tested on PC3 cells?
5.00 to 6.70

====

Test system: PC3 cells
protocol-details: XTT assay for cell viability, PC3 cells
Format: cell-based, human
assay-context: Homo sapiens, PC-3, cell viability
recorded-metric: IC50

// known answers, use as guide
I'm curious: which IC50 was measured for Cc1ccc(-c2ccc3c(N4CCOCC4)nc(-c4ccc(NC(=O)Nc5ccc(C(=O)N(C)C)nc5)nc4)nc3c2)o1 [Example 129] tested on PC3 cells?
501 to 5000 nM

I'm curious: which IC50 was measured for CN(C)C(=O)c1ccc(NC(=O)Nc2ccc(-c3nc(N4CCOCC4)c4cc(F)c(-c5cnn(C)c5)cc4n3)cn2)cc1 [Example 113] tested on PC3 cells?
201 to 10000 nM

Then there is this compound:
I'm curious: which IC50 was measured for N[C@H]1CCN(C(=O)c2ccc(NC(=O)Nc3ccc(-c4nc(N5CCOCC5)c5ccc(-c6cncnc6)cc5n4)cc3)cc2)C1 [Example 194] tested on PC3 cells?
201 to 10000 nM

====

Known pIC50 of a selection of compounds
System: PC3 cells
protocol-details: XTT assay for cell viability, PC3 cells
Format: cell-based, human
assay-context: Homo sapiens, PC-3, cell viability
pIC50: −log10 of the molar value.

Any idea what its pIC50 is? The compound is `CN(C)C(=O)c1ccc(NC(=O)Nc2ccc(-c3nc(N4CCOCC4)c4ccc(-c5cncnc5)cc4n3)c(F)c2)cc1`
5.00 to 6.70

Any idea what its pIC50 is? The compound is `CN(C)Cc1ccc(-c2ccc3c(N4CCOCC4)nc(-c4ccc(NC(=O)Nc5ccc(C(=O)N(C)C)cc5)cc4)nc3c2)o1`
5.00 to 6.70

Further cases:
Any idea what its pIC50 is? The compound is `CN(C)C(=O)c1ccc(NC(=O)Nc2ccc(-c3nc(N4CCOCC4)c4ccc(-c5cccc(S(C)(=O)=O)c5)cc4n3)cn2)cc1`
6.30 to 7.00

====

Tested on: PC3 cells
protocol-details: XTT assay for cell viability, PC3 cells
Assay type: cell-based, human
assay-context: Homo sapiens, PC-3, cell viability
recorded-metric: IC50

Any idea what its IC50 is? The compound is `Cc1noc(C)c1-c1cnc2c(N3CCOCC3)nc(-c3ccc(NC(=O)Nc4ccc(C(=O)N(C)C)cc4)cc3)nc2c1`
201 to 10000 nM

Any idea what its IC50 is? The compound is `CN(C)C(=O)c1ccc(NC(=O)Nc2ccc(-c3nc(N4CCOCC4)c4cccc(-c5cccnc5F)c4n3)cc2)cc1`
100 to 500 nM

Any idea what its IC50 is? The compound is `CN1CCN(C(=O)c2ccc(NC(=O)Nc3ccc(-c4nc(N5CCOCC5)c5ccc(-c6cnn(C)c6)cc5n4)cc3)cc2)CC1`
< 100 nM

Further cases:
Any idea what its IC50 is? The compound is `CN(C)C(=O)c1ccc(NC(=O)Nc2ccc(-c3nc(N4CCOCC4)c4ccc(-c5cnn(C)c5)cc4n3)cc2F)cc1`
201 to 10000 nM

Any idea what its IC50 is? The compound is `CN(C)C(=O)c1ccc(NC(=O)Nc2ccc(-c3nc(N4CCOCC4)c4ccc(-c5cccc(S(C)(=O)=O)c5)cc4n3)cc2F)cn1`
201 to 10000 nM

Cited source for all entries: patent US9115092B2
